subjectOfTest: HLA-DRB1*0101 (human)
assayProcedure: competition with 125I-labelled probe peptide on purified HLA-DR
settings: remark: other sources report otherwise
readoutType: IC50 (nM)
Answer in nM, number only, no unit symbol.

Req: // returns reported IC50 for input SYTWTGALITPCAAE (modifications not checked) […]
Resp: 5.63
